Study target: Inadl_5, Q8NI35
Sequence (Q8NI35 673-780): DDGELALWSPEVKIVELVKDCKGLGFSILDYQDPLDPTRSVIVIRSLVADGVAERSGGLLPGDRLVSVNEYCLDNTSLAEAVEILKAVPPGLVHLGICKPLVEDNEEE
Test name: holdup assay
Design: key: below the threshold = too weak to quantify, mostly under pKd 3.1 to 4
Experimental conditions: plain residues with an end cap or a label only (N-terminal biotin on a linker: ado-ado)
Reported metric: pKd

# count of solved cases: 8
Binder | pKd
RRLPGKETMA [GRIK2, Q13002] | below the threshold
RKPKPSSSCC [RAB9A, P51151] | below the threshold
AKPSRISTVV [IQSEC2, Q5JU85] | 4.21
SKSNFGSEPL [KIF17, Q9P2E2] | below the threshold
HLRARKSEWV [GJD4, Q96KN9] | 5.11
GSGAVEMESV [AQP6, Q13520] | below the threshold
SARSRLSSNL [HCN2, Q9UL51] | below the threshold
RHGSCVETSL [TMEM151B, Q8IW70] | below the threshold

# batch: return pKd for each of the 7 binders below
1. IPLDGETEEL [MYOZ1, Q9NP98]
2. TLPRKRMSSI [GPRC6A, Q5T6X5]
3. DTTVPESEDL [MYOZ2, Q9NPC6]
4. TASPAKETSF [SLC2A7, Q6PXP3]
5. TACCHSETVV [TGFA, P01135]
6. PRAEAEDSFL [PDGFRB, P09619]
7. EVNETDDTKM [KCNJ1, P48048]

**A:**
1: below the threshold; 2: below the threshold; 3: below the threshold; 4: below the threshold; 5: 3.7; 6: below the threshold; 7: below the threshold

// each listed binder needs a value for pKd
1. QGLAERISVL [PRKD2, Q9BZL6]
2. PPYRHRNTVV [ERBB4, Q15303]
3. RRRESYSTTV [EVI5, O60447]
4. TPPAAKKSRI [BAZ1A, Q9NRL2]
5. DDPSTAETVL [ABCA7, Q8IZY2]

**A:**
1. below the threshold
2. 3.58
3. 3.63
4. below the threshold
5. below the threshold

For each of the items listed, what is its pKd?
1. YYKRPVQEWV [MMP24, Q9Y5R2]
2. PKRSFIESNV [TANC1, Q9C0D5]
3. NHSSSPETTA [TRMT13, Q9NUP7]
4. MLSKQSESAI [FLVCR1, Q9Y5Y0]

**A:**
4.47
below the threshold
below the threshold
below the threshold
